Origin of the recorded values: patent EP1036783B1

# protocol: clinical
# test settings: human, in vivo, t1/2, SVA in plasma
property label: half-life (h)
Report the value in h with no unit label.

// lookup half-life for CCC(C)(C)C(=O)O[C@H]1C[C@@H](C)C=C2C=C[C@H](C)[C@H](CC[C@@H](O)C[C@@H](O)CC(=O)O)[C@H]21 [SVA, dihydroxy open acid simvastatin]
2.3

###

# protocol: clinical
# test settings: human, in vivo, Tmax, SVA in plasma
property label: Tmax (h)
Report the value in h with no unit label.

// lookup Tmax for CCC(C)(C)C(=O)O[C@H]1C[C@@H](C)C=C2C=C[C@H](C)[C@H](CC[C@@H](O)C[C@@H](O)CC(=O)O)[C@H]21 [SVA, dihydroxy open acid simvastatin]
4.1
